Tested on: SF-539 CNS
Experiment: NCI tumour cell line growth inhibition, 48 h; in the data active means GI50 below about 0.43 µM; inactive means the rest
Output constraint: value belongs to active, inactive

{"MOLECULE": "COc1ccc(-c2cn(-c3cc(OC)c(OC)c(OC)c3)c(=O)[nH]2)cc1OC", "ANSWER LABEL": "inactive"}

# input Which result was noted for this molecule in the test: "NC(N)=Nc1ccc(/C=C2\C=Cc3ccccc32)cc1"
# output inactive

# input What is the recorded call for this molecule in the test? "COc1cc(/C=C/C(=O)c2c(-c3ccc(F)cc3)nc3sc(C)nn23)cc(OC)c1OC"
# output inactive

---

System: COLO 205 colon
Assay: NCI tumour cell line growth inhibition, 48 h; in the data active means GI50 below about 0.43 µM; inactive means the rest
Residues, ends and D or L forms follow the SMILES beside them. *: point of attachment. Cbz = O=C(OCc1ccccc1)*
Give one outcome, nothing more. List: active, inactive

{"COMPOUND": "Nc1nn(C(=O)Nc2c(F)cccc2F)c2ccccc12", "ANSWER LABEL": "inactive"}

# input Any idea what this test logged for Cc1ccccc1C(C(=O)NC1CCCCC1)N(C(=O)CNc1ccc(C#N)cc1)c1cccc(F)c1 (configuration not stated) ?
# output inactive

# input State the result this test recorded for "Cn1c(=O)c(Oc2ccc(F)cc2F)cc2cnc(NC3CCOCC3)nc21" .
# output inactive

# input Please let me know the test result on file for COc1ccc2c(c1)C(c1cc(OC)c3c(c1)OCO3)C1=C(COC1=O)N2 (configuration not stated) .
# output active

# input Record request — test call for "CN(C)c1ccccc1[CH2][Ga]([Cl])[CH2]c1ccccc1N(C)C"
# output inactive

# input For CC(C)C[C@@H](C=O)NC(=O)[C@H](CC(C)C)NC(=O)[C@H](CC(C)C)NC(=O)OCc1ccccc1 (Cbz-Leu-Leu-Leu-aldehyde) , which call appears in the assay record?
# output active

# input Test call for this compound, please: "O=C(c1ccccc1)c1nc2ccc(C(F)(F)F)cc2nc1N1CCN(c2ccccc2)CC1"
# output inactive

# input Test call for this compound, please: COc1ccc2nc3cccc([N+](=O)[O-])c3c(NC(C)CN(C)C)c2c1 (configuration not stated)
# output inactive

# input // param item: "C=C1c2nc3ccccc3n2C=C(c2ccc(Cl)cc2)N1c1ccc(OCCN2CCCCC2)cc1" ; yields the recorded call
# output inactive

# input What classification did "Oc1ccccc1/C=N\NC(=S)N/N=C/c1ccccc1O" end up with in this test?
# output inactive

# input What is the recorded call for this compound in the test? "C=CC(=O)N1CC[C@H](n2nc(C#Cc3cc(OC)cc(OC)c3)c3c(N)ncnc32)C1"
# output inactive

---

Tested on: HOP-62 NSCLC
Test: NCI tumour cell line growth inhibition, 48 h
Item-by-item account of GI50

{"MOLECULE": "CC(C)C(=O)c1c(C(F)(F)F)n([O-])c2ccccc2[n+]1=O", "GI50": "1.78 µM"}
{"MOLECULE": "Cc1c2c(nn1-c1ccc(S(=O)(=O)NC(=S)NC(=O)c3ccccc3)cc1)-c1ccccc1CC2", "GI50": "> 100 µM"}
{"MOLECULE": "CC[PH+](CC)CC.CC[PH+](CC)CC.[Au]", "GI50": "22 µM"}

# input Look up GI50: "C=C1C(=O)O[C@H]2[C@H]1CC/C(CNC(=O)/C=C/c1ccccc1F)=C\CC[C@@]1(C)O[C@@H]21"
# output 3.89 µM

# input Request the reported GI50 associated with "O=c1oc2ccc(Br)cc2c(=O)n1-c1ccc(Cl)cc1F"
# output 2.17 µM

# input Can you look up the measured GI50 of COc1cc2nc3cc([N+](=O)[O-])ccc3c(NCCNCC(C)O)c2cc1OC (stereo not given) for me?
# output 0.713 µM

# input molecule: "C=CC(=O)N1CC[C@H](n2nc(C#Cc3cc(OC)cc(OC)c3)c3c(N)ncnc32)C1" ; wanted: its GI50
# output 5.43 µM

# credit: PubChem BioAssay (NCI)
